biological target: Histone deacetylase 11 (Homo sapiens); assay: Inhibition of human HDAC11 expressed in HEK293/T17 cells pre-incubated for 10 mins before […] addition and measured after 30 mins by fluorescence-based assay
Sequence (Q96DB2 whole entry): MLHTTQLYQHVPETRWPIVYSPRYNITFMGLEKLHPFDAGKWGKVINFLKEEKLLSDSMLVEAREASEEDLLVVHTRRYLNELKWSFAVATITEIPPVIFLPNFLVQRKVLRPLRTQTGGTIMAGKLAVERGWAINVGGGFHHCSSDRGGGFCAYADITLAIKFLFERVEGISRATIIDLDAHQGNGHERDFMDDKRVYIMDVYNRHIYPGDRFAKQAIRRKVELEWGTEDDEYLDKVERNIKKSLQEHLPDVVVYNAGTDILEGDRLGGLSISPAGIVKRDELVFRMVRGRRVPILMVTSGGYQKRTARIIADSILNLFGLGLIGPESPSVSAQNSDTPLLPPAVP
pIC50: −log10 of the molar value.
So I've got a bunch of molecules here, and I need their pIC50 values.

# value of pIC50, Histone deacetylase 11 (Homo sapiens), item `O=C(NO)c1ccc(CN(CCCCO)C(=O)Nc2ccccc2)cc1` = < 4.30

The molecule `CCCCN(Cc1ccc(C(=O)NO)cc1)C(=O)Nc1ccc(CN)cc1` on Histone deacetylase 11 (Homo sapiens): pIC50 was < 4.30

// molecule `NCc1ccc(NC(=O)N(CCCCO)Cc2ccc(C(=O)NO)cc2)cc1` , assay Histone deacetylase 11 (Homo sapiens), pIC50 value: < 4.30

These data points were gathered from ChEMBL document CHEMBL4725372.
